Task for the reader: assign each of the following molecules its reported GI50.
tested on: SNB-78; test: NCI tumour cell line growth inhibition, 48 h
Active and inactive are the calls of the source. Cut-off read from the data, not from the text of the source: active = GI50 up to about 1.1 µM and inactive = higher.

Previously resolved entries follow.
O=c1c2cccnc2ncn1CCCN1CCOCC1 | > 100 µM (inactive)
CN(C)CCn1c2c3ccccc3ccc2c2oc(=O)c3ccccc3c21 | 19.7 µM (inactive)
O=C(/C=C/c1ccc(Cl)cc1)c1ccncc1 | > 100 µM (inactive)
O=C(CCCCCCCCC(=O)OCC1OC(n2cnc3c(=O)[nH]cnc32)C(O)C1O)OCC1OC(n2cnc3c(=O)[nH]cnc32)C(O)C1O (centres undefined) | > 100 µM (inactive)
NC(=O)c1csc(C2C=CC(CO)O2)n1 (centres undefined) | > 100 µM (inactive)
CC(=O)O[C@H]1CC[C@@]2(C)C(=CC[C@H]3C(CC#N)[C@@](C)(C#N)CCC32)C1 (some centres undefined) | 47.6 µM (inactive)

Give GI50 for each of the items listed below.
1. CSC(C1c2ccccc2N(c2ccc(C)cc2)C2=NC(=O)N(C)C(=O)C21Cl)S(=O)(=O)c1ccc(C)cc1 (centres undefined)
2. O=C(/C=C/c1ccccc1)NC1C=Nc2ccc([N+](=O)[O-])cc2NC1=O (centres undefined)
3. COC(=O)[C@@H]1C(=O)O[C@@H](c2cc(OC)c(OC)cc2OC)[C@@H]1C(=O)OC.COC(=O)[C@H]1C(=O)O[C@@H](c2cc(OC)c(OC)cc2OC)[C@@H]1C(=O)OC

Result:
["27.9 µM (inactive)", "> 100 µM (inactive)", "> 100 µM (inactive)"]
